Data origin, for the record: PubChem BioAssay (NCATS)

System: Hek293T
assayRemarks: Primary qHTS to identify gynecologic anti-cancer compounds using libraries of approved drugs and bioactive compounds (AID 1345084); note: nearly all actives have a fitted effect of over 55% in size
conditionSummary: Gynecologic cancer cell panel viability, ATPlite luminescence, 48 h, control line for the selectivity index; series mostly up to 57.5 µM
Results filed as inconclusive are left out. The source made the active and inactive calls. Calls come from the whole dose curve; as a rule, active = well fitted cell-killing curve with a large enough effect; inconclusive = small, poorly fitted or top-dose-only effect, or effect the other way; inactive = flat fitted curve, though single readings scatter.
Labels: active, inactive

>  <molecule>
CCS(=O)(=O)N(Cc1cccnc1)c1cccc(-c2ccc(C#N)cc2)c1

>  <category>
inactive

$$$$
>  <molecule>
O=C(Nc1ccc(F)cc1)N1CCc2ccccc2C1c1ccc(C(F)(F)F)cc1 (stereo not given)

>  <category>
inactive

$$$$
>  <molecule>
CCN1CCC[C@@H]1CNC(=O)c1ccc2c(c1)NC(=O)/C(=C/c1ccccc1F)S2

>  <category>
inactive

$$$$
>  <molecule>
N#C[C@@H]1C[C@@H]2C[C@@H]2N1C(=O)[C@@H](N)C12CC3CC(CC(O)(C3)C1)C2

>  <category>
inactive

$$$$
>  <molecule>
CC(=O)N1c2ccc(-c3ccc(C(=O)O)cc3)cc2C(Nc2ccc(Cl)cc2)CC1C (stereo not given)

>  <category>
inactive

$$$$
>  <molecule>
C[C@@H]1CCNC(=O)c2cc3ccc(C(=O)Nc4nc5ccccc5n4CCCN(C)C)cc3n21

>  <category>
inactive

$$$$
>  <molecule>
COc1ccccc1-c1cc(Nc2cccc(CS(N)(=O)=O)c2)ncn1

>  <category>
active

$$$$
>  <molecule>
COc1cc(-c2cc(-c3cccc(O)c3)cnc2N)cc(OC)c1OC

>  <category>
inactive

$$$$
>  <molecule>
O=C(NCc1ccc(Oc2ccccc2)cc1)c1nc(-c2cc(Br)c(O)c(Br)c2)no1

>  <category>
inactive

$$$$
>  <molecule>
CCOP(=O)(Cc1ccc(C(=O)Nc2ccc(Br)cc2C#N)cc1)OCC

>  <category>
inactive

$$$$

====

assayRemarks: qHTS for Inhibitors of Plasmodium falciparum (HB3) proliferation (AID 504318); note: nearly all actives have a fitted effect of over 60% in size
conditionSummary: P. falciparum HB3 in erythrocytes, SYBR Green DNA, 72 h; series mostly up to 7.21 µM
Results filed as inconclusive are left out. The source made the active and inactive calls. The call rests on the fitted dose curve; in most records, active means well fitted inhibition curve with a large enough effect; inconclusive means small, poorly fitted or top-dose-only effect; inactive means flat fitted curve, though single readings scatter.
Labels: active, inactive

>  <compound>
C[C@H]1C[C@@H](C)O[C@@]2(C1)C(=O)Nc1ccccc12

>  <category>
inactive

$$$$
>  <compound>
CCCCC1=CC2=CC(=O)C(C)(OC(=O)CCc3ccccc3)C(=O)C2=CO1 (centres undefined)

>  <category>
inactive

$$$$
>  <compound>
O=C1c2ccccc2C(=O)N1CCCC[C@]12Cc3c(ccc4ccccc34)[C@H](O1)c1c(cc(-c3ccccc3)oc1=O)O2

>  <category>
active

$$$$
>  <compound>
C=CCOC(=O)NC(c1ccc(F)c(F)c1)S(=O)(=O)c1ccc(Cl)cc1 (centres undefined)

>  <category>
inactive

$$$$
>  <compound>
CC=C[C@@H]1Oc2ccc(OC)cc2N2C(=O)[C@H](C)[C@@H](OCOC)[C@H]12

>  <category>
inactive

$$$$
>  <compound>
COC(=O)N[C@@H](CCc1ccccc1)[C@]1(C(=O)OC)CCCC1=O

>  <category>
inactive

$$$$
>  <compound>
COC(=O)C1=C(C)N(Cc2ccccc2)C(=NCCCCO)NC1c1cccc(F)c1 (centres undefined)

>  <category>
inactive

$$$$
>  <compound>
COc1ccc2c(c1)O[C@@H](c1cccc(C(F)(F)F)c1)[C@H](O)C2=O

>  <category>
inactive

$$$$
>  <compound>
CC(=O)OC[C@H]1O[C@H](CC=NO[C@@H](C)c2cn([C@H](CO)Cc3ccccc3)nn2)C=C[C@@H]1OC(C)=O

>  <category>
inactive

$$$$
>  <compound>
COc1cccc(-c2coc3ccc(Br)cc3c2=O)c1

>  <category>
inactive

$$$$
>  <compound>
C[C@@H]1CC[C@H]2C(=O)O[C@@H](COc3ccc(C(C)(C)C)cc3)CN2[C@@H]1c1ccc(Br)cc1

>  <category>
active

$$$$
>  <compound>
CCCCCCCC1=CC2=CC(=O)C(C)(OC(C)=O)C(=O)C2=CN1CCc1ccccc1 (centres undefined)

>  <category>
inactive

$$$$
>  <compound>
O=C1C2=C(C(=O)c3ccccc31)[C@H]1O[C@](c3ccsc3)(Cc3c1ccc1ccccc31)O2

>  <category>
inactive

$$$$
>  <compound>
COC(=O)N1C(C)=Cc2ccccc2C1CC(C)=O (centres undefined)

>  <category>
inactive

$$$$
>  <compound>
C=CCC1(O)C=CCC2C3C4C(OC(C)(C)C)C2C1C34 (centres undefined)

>  <category>
inactive

$$$$
>  <compound>
C=CCCC1(C(=O)c2ccccc2)C(=O)C(CC=C(C)C)=C(OC)C(CC=C(C)C)(CCC=C(C)C)C1=O (centres undefined)

>  <category>
active

$$$$
>  <compound>
COC(=O)CCCC1=CC2=C(c3ccccc3)C(=O)C(C)(OC(=O)C3CCCC3)C(=O)C2=CN1CCCCO (centres undefined)

>  <category>
inactive

$$$$
>  <compound>
COc1ccc2c(c1)C(=O)[C@@H](OC(=O)Nc1cc(OC)c(OC)c(OC)c1)[C@H](c1ccc(OC)c(Br)c1)O2

>  <category>
inactive

$$$$
>  <compound>
COC(=O)CCCC1=CC2=C(c3ccccc3)C(=O)C(C)(OC(=O)C3CCCC3)C(=O)C2=CN1c1ccccc1 (centres undefined)

>  <category>
inactive

$$$$
